Measured values drawn from the supplement of paper PMC6755084 for this set.

B1: F1*; the commonest letter at each place (parent)
chain: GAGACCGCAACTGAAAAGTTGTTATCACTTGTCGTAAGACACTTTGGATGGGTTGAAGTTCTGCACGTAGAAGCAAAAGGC

Variants of: B1
Assay: fraction ligated after 30 min (ligated reads / total reads); higher = more ligase activity
Conditions: with F1*sub RNA substrate (template-directed ligation), 42 °C
What fraction ligated was measured for each of the following?
Please state the value as a number alone, without comment.

Look up fraction ligated for this variant: A37G C40A
0.807

Look up fraction ligated for this variant: A56G
0.781

Look up fraction ligated for this variant: C28T A41G
0.789

Look up fraction ligated for this variant: C33T T35C
0.869

Look up fraction ligated for this variant: T43A A48T
0.774

Look up fraction ligated for this variant: T32A G50A
0.232

Look up fraction ligated for this variant: T25G T35A
0.787

Look up fraction ligated for this variant: T32C G34A
0.796

Look up fraction ligated for this variant: G31T A39T
0.792

Look up fraction ligated for this variant: A41T C42A
0.849

Look up fraction ligated for this variant: C26G A39G
0.755

Look up fraction ligated for this variant: A39C G55T
0.802

Look up fraction ligated for this variant: A27T T29C
0.807

Look up fraction ligated for this variant: A27G T29C
0.788

Look up fraction ligated for this variant: C28G A48T
0.47

Look up fraction ligated for this variant: T23G G46T
0.759

Look up fraction ligated for this variant: T44C A48T
0.781

Look up fraction ligated for this variant: A41C G50A
0.28

Look up fraction ligated for this variant: C42T G55C
0.797

Look up fraction ligated for this variant: A24G G31T
0.331

Look up fraction ligated for this variant: A39G A41C
0.781

Look up fraction ligated for this variant: T23C A48C
0.697
